Kindly supply the reported pEC50 values for the records listed here.
- assay-text: DPPH radical scavenging assay
- Assay type: biochemical
- measurement-parameters: in ethanol; DPPH 200 µM; read at 520 nm over 7.5 h; read-out: EC50 for DPPH inhibition
One number for each entry, as −log10 of the molar value.

For the 4 compounds below, give their pEC50 values.
1. COc1cc(CCC(=O)c2cc(OC)c(O)c(OC)c2)cc(OC)c1O
2. O=C(/C=C/c1ccc(O)c(O)c1)c1ccc(O)c(O)c1 [a4, 3,3′,4,4′-tetrahydroxy-chalcone]
3. Cc1cc(C(C)(C)C)c(O)c(C(C)(C)C)c1 [BHT, butylated hydroxytoluene, reference compound]
4. COc1cc(/C=C/C(=O)c2ccc(O)cc2)ccc1O [a5, 4,4′-dihydroxy-3-methoxy-chalcone]

[4.37, 5.10, 4.55, 4.15]

* * *

- assay-text: Photostability: absorbance loss after UV irradiation
- Assay type: physicochemical
- measurement-parameters: 10 µM in ethanol; 1 h irradiation at 300 nm; absorbance at λmax before vs after
Label T for high-side Loss of absorbance (at or above 10%) and F for low-side Loss of absorbance (below it).

Please review the following examples before continuing.
* COc1cc(C(=O)CCc2ccc(O)cc2)cc(OC)c1O | T
* COc1cc(CCC(=O)c2ccc(O)c(OC)c2)ccc1O | T
* COc1cc(CCC(=O)c2ccc(O)c(O)c2)ccc1O | F
* COc1cc(C(=O)/C=C/c2ccc(O)cc2)ccc1O [a6, 4,4′-dihydroxy-3′-methoxy-chalcone] | T
* CCCCC(CC)COC(=O)C=Cc1ccc(OC)cc1 (stereo not drawn) [Octinoxate, octinoxate, reference compound] | T
* O=C(/C=C/c1ccc(O)cc1)c1ccc(O)cc1 [a1, 4,4′-dihydroxy-chalcone] | T
* COc1ccc(C(=O)CC(=O)c2ccc(C(C)(C)C)cc2)cc1 [Avobenzone, avobenzone, reference compound] | F
* O=C(CCc1ccc(O)cc1)c1c(O)cc(O)cc1O | F
* O=C(CCc1ccc(O)c(O)c1)c1ccc(O)cc1 [b2, 3,4,4′-trihydroxy-dihydrochalcone] | T
* O=C(CCc1ccc(O)cc1)c1ccc(O)cc1 [b1, 4,4′-dihydroxy-dihydrochalcone] | T

--- query ---
# bool: Loss of absorbance of O=C(/C=C/c1ccc(O)c(O)c1)c1ccc(O)c(O)c1 [a4, 3,3′,4,4′-tetrahydroxy-chalcone] >= 10%
T

* * *

- assay-text: DPPH radical scavenging assay
- Format: biochemical
- measurement-parameters: in ethanol; DPPH 200 µM; read at 520 nm over 7.5 h; read-out: EC50 for DPPH inhibition
- Method: The radical scavenging activity of all compounds was tested through 2,2-diphenyl-1-picryhydrazyl (DPPH) assay which determines the EC50 values as previously described. […] The reaction was carried out in 96-well microplates and the disappearance of DPPH radicals was monitored at 520 nm every 5 min during 7.5 h in a multiplate Biotek (Winooski, VT, USA), Epoch 2 spectrophotometer. […]
Record form. Attribute: pEC50. Fill in for each entry.
Answers are plain numbers, as −log10 of the molar value.

Study these solved cases before continuing.
* COc1cc(C(=O)CCc2cc(OC)c(O)c(OC)c2)ccc1O | 4.48
* COc1cc(/C=C/C(=O)c2ccc(O)c(O)c2)ccc1O [a8, 3′,4,4′-trihydroxy-3-methoxy-chalcone] | 5.02

Now take the following compound into account.
# get_value(readout='pEC50', item= O=C(CCc1ccc(O)c(O)c1)c1ccc(O)cc1 [b2, 3,4,4′-trihydroxy-dihydrochalcone] )
4.46
